System: Staphylococcus aureus
Assay: Antibacterial activity against Staphylococcus aureus isolate 357 obtained from veterinary sample after 24 hrs by broth microdilution method
Format: functional
Conditions: isolate 357, 24 h
recorded-metric: MIC (µg/mL)

Past entries and their recorded results:
smiles-data	experimental-system	measured-result
Cc1nn(C)c([N-]C(=O)Nc2ccc([N+](=O)[O-])cc2)c1[N+]#N	Staphylococcus aureus	3.1
Cc1nn(C)c([N-]C(=O)Nc2ccc(Cl)cc2)c1[N+]#N	Staphylococcus aureus	6.2
Cc1nn(C)c([N-]C(=O)Nc2ccccc2)c1[N+]#N	Staphylococcus aureus	6.2
Cc1nn(C)c([N-]C(=O)Cc2ccc(Cl)cc2)c1[N+]#N	Staphylococcus aureus	1.5
COc1ccc(CC(=O)[N-]c2c([N+]#N)c(C)nn2C)cc1	Staphylococcus aureus	6.2
CO[C@H]1/C=C/O[C@@]2(C)Oc3c(C)c(O)c4c(O)c(c(/C=N/N5CCN(C)CC5)c(O)c4c3C2=O)NC(=O)/C(C)=C\C=C\[C@H](C)[C@H](O)[C@@H](C)[C@@H](O)[C@@H](C)[C@H](OC(C)=O)[C@@H]1C	Staphylococcus aureus	0.015

1. Cc1nn(C)c([N-]C(=O)Nc2ccc(Cl)c(Cl)c2)c1[N+]#N
2. Cc1nn(C)c([N-]C(=O)Cc2ccccc2)c1[N+]#N
Enquiry: Lower MIC: 1 or 2 ? Your answer should be the label attached to the chosen record.
Return: 2
(2: 1.5 µg/mL, 1: 6.2 µg/mL)

* * *

Tested on: Staphylococcus aureus
Experiment: Antibacterial activity against Staphylococcus aureus ATCC 25923 after 24 hrs by broth microdilution method
Type: functional
Conditions: ATCC 25923, 24 h
recorded-metric: MIC

Past entries and their recorded results:
smiles-data	MIC
Cc1nn(C)c([N-]C(=O)Nc2ccc(OCc3ccccc3)cc2[N+](=O)[O-])c1[N+]#N	> 50 µg/mL
COc1ccc(NC(=O)[N-]c2c([N+]#N)c(C)nn2C)c([N+](=O)[O-])c1	> 50 µg/mL

Attention now shifts to the item below.
Enquiry: Could you tell me which MIC is on file for CCCCOc1ccc(NC(=O)[N-]c2c([N+]#N)c(C)nn2C)c([N+](=O)[O-])c1 ?
Return: > 50 µg/mL

* * *

System: Staphylococcus aureus
Assay: Antibacterial activity against Staphylococcus aureus isolate 357 obtained from veterinary sample after 24 hrs by broth microdilution method
Type: functional
Conditions: isolate 357, 24 h
recorded-metric: MIC

Past entries and their recorded results:
smiles-data	experimental-system	MIC
COc1ccc(NC(=O)[N-]c2c([N+]#N)c(C)nn2C)c([N+](=O)[O-])c1	Staphylococcus aureus	> 50 µg/mL
CCCCOc1ccc(NC(=O)[N-]c2c([N+]#N)c(C)nn2C)c([N+](=O)[O-])c1	Staphylococcus aureus	> 50 µg/mL

Attention now shifts to the item below.
Enquiry: Could you tell me which MIC is on file for Cc1nn(C)c([N-]C(=O)Nc2ccc(OCc3ccccc3)cc2[N+](=O)[O-])c1[N+]#N ?
Return: > 50 µg/mL
